- protocol: The drug is tested on WLS-069 corresponding to human gut metagenome with ENA study accession number: PRJEB37062 and ENA sample accession number: ERS12561748 for biotransformation under anaerobic condition. The drug concentrations were measured over 9 timepoints collected between 0 and 24 hours of incubation by liquid-chromatography-coupled mass spectrometry (LC–MS); further: call rule not given here
- experimental parameters: 2 µM
property: Bacterial Biotransformation

| molecule | Bacterial Biotransformation |
| --- | --- |
| CN1CCC(OC(c2ccccc2)c2ccccc2)CC1 | Compound NOT metabolized |
| CCOc1ccccc1OCCN[C@H](C)Cc1ccc(OC)c(S(N)(=O)=O)c1.Cl [TAMSULOSIN HYDROCHLORIDE] | Compound NOT metabolized |
| CCc1oc2ccccc2c1C(=O)c1cc(Br)c(O)c(Br)c1 | Compound metabolized |
| COc1ccnc(C[S+]([O-])c2nc3ccc(OC(F)F)cc3[nH]2)c1OC (stereo not given) | Compound metabolized |
| CC(C)NCC(O)COc1ccc(CC(N)=O)cc1 (stereo not given) | Compound metabolized |

Ask: Look up Bacterial Biotransformation for this molecule: Nc1nnc(-c2cccc(Cl)c2Cl)c(N)n1
Reply: Compound NOT metabolized

Ask: For the molecule Cc1cc2c(s1)Nc1ccccc1N=C2N1CCN(C)CC1 , what Bacterial Biotransformation is on record?
Reply: Compound NOT metabolized

Ask: For the molecule shown here, O=C([O-])C[C@H](O)C[C@H](O)/C=C/c1c(C2CC2)nc2ccccc2c1-c1ccc(F)cc1.O=C([O-])C[C@H](O)C[C@H](O)/C=C/c1c(C2CC2)nc2ccccc2c1-c1ccc(F)cc1.[Ca+2] , give the reported Bacterial Biotransformation.
Reply: Compound metabolized
